- EXPERIMENTAL SYSTEM: eNOS promoter
- ASSAY PROTOCOL: Activation of eNOS transcription (eNOS promoter-luciferase reporter gene assay)
- CONDITION SET: human endothelial cell line stably transfected with eNOS promoter-luciferase construct; 18 h incubation; EC50 determined graphically from TIR vs concentration; read-out: eNOS transcription induction ratios EC50
Please respond with reported pEC50 for every item in the list.
The value called pEC50 is obtained by taking minus log10 of the concentration in mol/L.

Lookup: Identify measured pEC50 corresponding to COc1ccc(C(=O)N[C@@H]2C[C@H]2c2ccccc2)cn1 (racemic)
Found: 6.11

Lookup: Supply pEC50 value. Item: Cc1ccc(C(=O)N[C@@H]2C[C@H]2c2ccccc2)cn1 (racemic)
Found: 5.96

Lookup: Entry COCc1ccc(C(=O)N[C@@H]2C[C@H]2c2ccccc2)cn1 (racemic) needs its pEC50 filled in; supply it.
Found: 5.37

Lookup: For the molecule Nc1nccnc1C(=O)N[C@@H]1C[C@H]1c1ccccc1 (racemic) , give its reported pEC50.
Found: 6.37

Lookup: Supply recorded pEC50 for Cc1nc(C)c(C(=O)N[C@@H]2C[C@H]2c2ccccc2)s1 (racemic) here.
Found: 6.22

Lookup: Quick one: give measured pEC50 for CN1CCN(c2cccc(C(=O)N[C@@H]3C[C@H]3c3ccccc3)c2)CC1 (racemic)
Found: 4.23

Lookup: Please report the measured pEC50 for O=C(NC1CC1c1ccccc1)c1ccc(Cl)s1 (racemic)
Found: 6.64

Lookup: Identify measured pEC50 associated with O=C(N[C@@H]1C[C@H]1c1ccccc1)c1ccc(N2CCOCC2)nc1 (racemic)
Found: 5.46

Lookup: Consider the molecule Nc1ncccc1C(=O)N[C@@H]1C[C@H]1c1ccccc1 (racemic) and give its recorded pEC50.
Found: 6.02

Lookup: Consider the molecule Cc1cc(C)c(C(=O)NC2CC2c2ccccc2)c(N)n1 (racemic) . State its measured pEC50.
Found: 4.92

Lookup: Supply reported pEC50 belonging to this molecule: O=C(N[C@@H]1C[C@H]1c1ccccc1)c1ccc(F)cc1 (relative stereo) [Example 40]
Found: 5.82

Lookup: Provide measured pEC50 value, entry: Cc1ccc(C(=O)N[C@@H]2C[C@H]2c2ccccc2)c(C)n1 (racemic)
Found: 6.48

Lookup: Give the value of pEC50 reported for the following: Cc1nc(C2CC2)sc1C(=O)N[C@@H]1C[C@H]1c1ccccc1 (racemic)
Found: 6.52

Lookup: Check the records and state pEC50 for Cc1nc(N)c(C(=O)N[C@@H]2C[C@H]2c2ccccc2)nc1C (racemic)
Found: 6.80

Lookup: Let me know recorded pEC50 for Cc1ccc(C(=O)N[C@@H]2C[C@H]2c2ccccc2)cc1NS(C)(=O)=O (racemic) , thanks.
Found: 5.74

Lookup: Please report pEC50 for the following molecule: Cc1nc2ccc(C(=O)N[C@@H]3C[C@H]3c3ccccc3)cc2[nH]1 (racemic)
Found: 6.48

---

- EXPERIMENTAL SYSTEM: eNOS promoter
- ASSAY PROTOCOL: Activation of eNOS transcription (eNOS promoter-luciferase reporter gene assay)
- CONDITION SET: human endothelial cell line stably transfected with eNOS promoter-luciferase construct; 18 h incubation; EC50 determined graphically from TIR vs concentration; read-out: eNOS transcription induction ratios EC50
For each of the compounds below, state its log10(EC50).
In our notation, the value equals log10 of EC50 in nM.

Lookup: Report log10(EC50) on eNOS promoter for this entry: Cc1ccc(C(=O)N[C@@H]2C[C@H]2c2ccccc2)c(Cl)n1 (racemic)
Found: 2.46

Lookup: Param request: log10(EC50) | system eNOS promoter | item O=C(N[C@@H]1C[C@H]1c1ccccc1)c1cccc(N2CCCCC2)c1 (racemic)
Found: 4.04

Lookup: State log10(EC50) (eNOS promoter) of O=C(N[C@@H]1C[C@H]1c1ccccc1)c1ccc(F)cc1 (relative stereo) [Example 39] .
Found: 2.28

Lookup: State recorded log10(EC50) with eNOS promoter, entry Cc1ccc(C(=O)NC2CC2c2ccccc2)s1 (racemic) , no comment.
Found: 2.41

Lookup: Send back eNOS promoter log10(EC50) of O=C(N[C@@H]1C[C@H]1c1ccccc1)c1cccc(N2CCCC2)c1 (racemic) only.
Found: 3.11

Lookup: Return reported log10(EC50) for target or system eNOS promoter, item O=C(NC1CC1c1ccccc1)c1cccc(Cl)c1Cl (racemic) .
Found: 3.08

Lookup: Report its log10(EC50) with eNOS promoter as the test system: O=C(N[C@@H]1C[C@H]1c1ccccc1)c1cccc(N2CCOCC2)c1 (racemic)
Found: 4.51

Lookup: Give eNOS promoter log10(EC50) for the following compound: CS(=O)(=O)Nc1cccc(C(=O)N[C@@H]2C[C@H]2c2ccccc2)c1 (racemic)
Found: 3.30
